MEASURED ON: KRAS G12C and cRAF (Ras-binding domain) interaction (Homo sapiens (Human), UniProt P01116, C118S/C51S/C80L/G12C)
Sequence (P01116 other isoform, or with tags, fused parts or gaps G12C/C51S/C80L/C118S): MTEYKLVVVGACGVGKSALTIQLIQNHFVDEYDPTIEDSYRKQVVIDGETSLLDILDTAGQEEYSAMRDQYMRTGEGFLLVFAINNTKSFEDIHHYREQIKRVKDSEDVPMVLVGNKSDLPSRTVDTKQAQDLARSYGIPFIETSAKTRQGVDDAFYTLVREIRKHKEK
METHOD: Inhibition of KRAS G12C and cRAF binding (AlphaScreen)
CONDITION CONTEXT: GMPPNP-loaded KRAS G12C, 19-20 hours incubation with compound; read-out: IC50 (Inhibition of KRAS G12C and cRAF Binding)
EXPERIMENTAL READOUT: IC50

Guide cases for IC50, answers given:
1. C#Cc1c(F)ccc2cccc(-c3ncc4c(N(C)[C@@H]5CCN(C(=O)/C=C/CN6C[C@@H]7C[C@H]6CO7)C5)nc(OC[C@@]56CCCN5C[C@H](F)C6)nc4c3F)c12 [Example 291]	< 10 nM
2. Cc1nccc(/C=C/C(=O)N2C[C@H](F)[C@@H](N(C)c3nc(OC[C@@]45CCCN4C[C@H](F)C5)nc4c(F)c(-c5cccc6cccc(Cl)c56)ncc34)C2)n1 [Example 216]	100 to 500 nM
3. COC(=O)/C=C/C(=O)NC1CCN(c2nc(OC[C@@H]3CCCN3C)nc3c2CCN(c2cccc4cccc(Cl)c24)C3)C1 (some centres unmarked) [Example 14]	> 500 nM
4. Cc1cc(/C=C/C(=O)N2CC[C@@H](N(C)c3nc(OC[C@@]45CCCN4C[C@H](F)C5)nc4c(F)c(-c5cccc6ccc(F)c(F)c56)ncc34)C2)nc(C)n1 [Example 203]	10 to 100 nM

# input molecule: CN(CC1CN(C(=O)/C=C/CN2CCOCC2)C1)c1nc(OC[C@@]23CCCN2C[C@H](F)C3)nc2c(F)c(-c3cccc4ccc(F)c(Cl)c34)ncc12 [Example 79] ; wanted: its IC50
10 to 100 nM

# input molecule: Cc1nccc(/C=C/C(=O)N2CC(CN(C)c3nc(OC[C@@]45CCCN4C[C@H](F)C5)nc4c(F)c(-c5cccc6cccc(Cl)c56)ncc34)C2)n1 [Example 62] ; wanted: its IC50
10 to 100 nM

# input molecule: Cc1nccc(/C=C/C(=O)N2CC(CN(C)c3nc(OC[C@@]45CCCN4C[C@H](F)C5)nc4c(F)c(-c5cccc6ccc(F)c(Cl)c56)ncc34)C2)n1 [Example 68] ; wanted: its IC50
10 to 100 nM

# input molecule: CN(c1nc(OC[C@@]23CCCN2C[C@H](F)C3)nc2c(F)c(-c3cccc4cccc(Cl)c34)ncc12)[C@@H]1CCN(C(=O)/C=C/CN2CCOCC2)C1 [Example 90] ; wanted: its IC50
10 to 100 nM

# input molecule: CN(CCNC(=O)/C=C/C(=O)O)c1nc(OC[C@@H]2CCCN2C)nc2c1CCN(c1cccc3cccc(Cl)c13)C2 [Example 21] ; wanted: its IC50
> 500 nM

# input molecule: C=CC(=O)N1CC[C@@H](N(C)c2nc(OC[C@@]34CCCN3C[C@H](F)C4)nc3c(F)c(-c4cccc5cc(F)cc(F)c45)ncc23)C1 [Example 268] ; wanted: its IC50
100 to 500 nM

# input molecule: Cc1cc(/C=C/C(=O)N2CC(CN(C)c3nc(OC[C@@]45CCCN4C[C@H](F)C5)nc4c(F)c(-c5cccc6ccc(F)c(Cl)c56)ncc34)C2)nc(C)n1 [Example 273] ; wanted: its IC50
100 to 500 nM

* * *

MEASURED ON: KRAS G12C and cRAF (Ras-binding domain) interaction (Homo sapiens (Human), UniProt P01116, C118S/C51S/C80L/G12C)
METHOD: Inhibition of KRAS G12C and cRAF binding (AlphaScreen)
CONDITION CONTEXT: additional exemplary compounds; KRAS G12C and cRAF binding; read-out: RAF1 RBD IC50
pIC50: −log10 of the molar value.
EXPERIMENTAL READOUT: pIC50

Guide cases for pIC50, answers given:
1) CN(C)C/C=C/C(=O)N1CC[C@@H](N(C)c2nc(OC[C@@]34CCCN3C[C@H](F)C4)nc3c(F)c(-c4cccc5ccc(F)c(Cl)c45)ncc23)C1	7.00 to 8.00
2) O=C(/C=C/CN1[C@@H]2CC[C@H]1COC2)N1CCN(c2nc(OC[C@@]34CCCN3C[C@H](F)C4)nc3c(F)c(-c4cccc5cccc(Cl)c45)ncc23)CC12CC2	< 6.30

Kindly consider the entry below.
# input compound: C=CC(=O)N1CC[C@H]2[C@@H]1CCN2c1nc(OCC23CCCN2CCC3)nc2c1CCN(c1cccc3cccc(Cl)c13)C2 ; wanted: its pIC50
< 6.30

* * *

MEASURED ON: KRAS G12C and cRAF (Ras-binding domain) interaction (Homo sapiens (Human), UniProt P01116, C118S/C51S/C80L/G12C)
METHOD: Inhibition of KRAS G12C and cRAF binding (AlphaScreen)
CONDITION CONTEXT: GMPPNP-loaded KRAS G12C, 19-20 hours incubation with compound; read-out: IC50 (Inhibition of KRAS G12C and cRAF Binding)
pIC50: −log10 of the molar value.
EXPERIMENTAL READOUT: pIC50

Guide cases for pIC50, answers given:
1) CN(c1nc(OCC23CCCN2CCC3)nc2c1CCN(c1cccc3cccc(Cl)c13)C2)[C@@H]1CCN(C(=O)/C=C/c2nc(C3CC3)no2)C1	7.00 to 8.00
2) C=CC(=O)C1CCN(c2nc(OC[C@@H]3CCCN3C)nc3c2CCN(c2cccc4cccc(Cl)c24)C3)CC1	7.00 to 8.00

# input compound: CN(c1nc(OCC23CCCN2CCC3)nc2c(F)c(-c3cccc4cccc(Cl)c34)ncc12)[C@@H]1CCN(C(=O)/C=C/c2nc(C(F)(F)F)no2)C1 ; wanted: its pIC50
> 8.00

# input compound: Cc1nsc(/C=C/C(=O)N2CC[C@@H](N(C)c3nc(OC[C@@]45CCCN4C[C@H](F)C5)nc4c(F)c(-c5cccc6cccc(Cl)c56)ncc34)C2)n1 ; wanted: its pIC50
7.00 to 8.00

# input compound: CN(c1nc(OC[C@@]23CCCN2C[C@H](F)C3)nc2c(F)c(-c3cccc4cccc(Cl)c34)ncc12)[C@@H]1CCN(C(=O)/C=C/c2cn(C)cn2)C1 ; wanted: its pIC50
6.30 to 7.00

# input compound: COC(=O)/C=C/C(=O)N1CC(CN(C)c2nc(OCC34CCCN3CCC4)nc3c(F)c(-c4cccc5cccc(Cl)c45)ncc23)C1 ; wanted: its pIC50
> 8.00

# input compound: CN(CC1CN(C(=O)/C=C/c2ccncn2)C1)c1nc(OC[C@@]23CCCN2C[C@H](F)C3)nc2c(F)c(-c3cccc4cccc(Cl)c34)ncc12 ; wanted: its pIC50
7.00 to 8.00

* * *

MEASURED ON: KRAS G12C and cRAF (Ras-binding domain) interaction (Homo sapiens (Human), UniProt P01116, C118S/C51S/C80L/G12C)
METHOD: Inhibition of KRAS G12C and cRAF binding (AlphaScreen)
CONDITION CONTEXT: GMPPNP-loaded KRAS G12C, 19-20 hours incubation with compound; read-out: IC50 (Inhibition of KRAS G12C and cRAF Binding)
The following compounds are listed with their measured IC50 values.

1) CN(c1nc(OC[C@@]23CCCN2C[C@H](F)C3)nc2c(F)c(-c3cccc4cccc(Cl)c34)ncc12)[C@@H]1CCN(C(=O)/C=C/c2nc(C(F)F)no2)C1	< 10 nM

# input compound: CN(c1nc(OC[C@@]23CCCN2C[C@H](F)C3)nc2c(F)c(-c3cccc4cccc(Cl)c34)ncc12)[C@@H]1CCN(C(=O)C#C[C@@]2(C)CCCN2C)C1 ; wanted: its IC50
10 to 100 nM

# input compound: C=CC(=O)N1CC[C@@H](N(C)c2nc(OCC34CCCN3CCC4)nc3c(F)c(-c4cccc5cccc(F)c45)ncc23)C1 ; wanted: its IC50
100 to 500 nM

# input compound: CCc1c(F)ccc2cccc(-c3ncc4c(N(C)CC5CN(C(=O)/C=C/c6cc(C)nc(C)n6)C5)nc(OC[C@@]56CCCN5C[C@H](F)C6)nc4c3F)c12 ; wanted: its IC50
100 to 500 nM

# input compound: CN(c1nc(OC[C@@]23CCCN2C[C@H](F)C3)nc2c1CCN(c1cccc3cccc(Cl)c13)C2)[C@@H]1CCN(C(=O)/C=C/c2nc([C@H]3C[C@@H]3F)no2)C1 ; wanted: its IC50
10 to 100 nM

# input compound: CN1CCC[C@H]1COc1nc2c(c(N(C)[C@@H]3CCN(C#N)C3)n1)CCN(c1cccc3cccc(Cl)c13)C2 ; wanted: its IC50
100 to 500 nM

* * *

MEASURED ON: KRAS G12C and cRAF (Ras-binding domain) interaction (Homo sapiens (Human), UniProt P01116, C118S/C51S/C80L/G12C)
METHOD: Inhibition of KRAS G12C and cRAF binding (AlphaScreen)
CONDITION CONTEXT: additional exemplary compounds; KRAS G12C and cRAF binding; read-out: RAF1 RBD IC50
pIC50: −log10 of the molar value.
The following molecules are listed with their measured pIC50 values.

Guide cases for pIC50, answers given:
1. CN(c1nc(OCC23CCCN2CCC3)nc2c1CCN(c1cccc3cccc(Cl)c13)C2)[C@@H]1CCN(C(=O)/C=C/CN2CC(F)C2)C1	7.00 to 8.00
2. CN(CCC1CN(C#N)C1)c1nc(OCC23CCCN2CCC3)nc2c1CCN(c1cccc3cccc(Cl)c13)C2	6.30 to 7.00

# input molecule: C=CC(=O)N1CCC[C@@H](N(C)c2nc(OC[C@@]34CCCN3C[C@H](F)C4)nc3c2CCN(c2cccc4cccc(Cl)c24)C3)C1 ; wanted: its pIC50
< 6.30

# input molecule: C#Cc1c(F)ccc2cccc(-c3ncc4c(N(C)[C@H]5CCN(C(=O)C=C)C5)nc(OC[C@@]56CCCN5C[C@H](F)C6)nc4c3F)c12 ; wanted: its pIC50
6.30 to 7.00

# input molecule: CN1CCC1/C=C/C(=O)N1CCCN(c2nc(OC[C@@]34CCCN3C[C@H](F)C4)nc3c(F)c(-c4cccc5cccc(Cl)c45)ncc23)CC1 (stereo partly drawn) ; wanted: its pIC50
< 6.30
